# assay-method-text: folding stability dG unfold from chymotrypsin proteolysis; higher = more stable
The sequences listed here are annotated with their folding stability dG unfold.

| sequence | folding stability dG unfold (kcal/mol) |
| --- | --- |
| SAGGTTTTLTFETEEEAREFAEELREKHPDVVLEVEIRRETRTVTVPGVGEVREVDRVVVTVTLTPASAGGS [r16_828_JUSTAS] | 3.27 |
| SAGGSAGGSAGGKMRLYRFNLKTNKIEEVEAEPGEVIKITFPGKEIVLVVKDGKIELIPSAGGSAGGSAGGS [r10_817_TrROS_Hall] | 1.2 |
| SAGGSATLTLPEDVVKEVFTAKVGDKEYRPVVFRSPDDEWVLVLVLRRDPNGNTSAVAALLPKDAVSAGGSA [r15_986_TrMRF] | 1.8 |
| SAGGMKTLTITLTVRNPATQETLTLTITVPEGMSEEELQALLKQLQELVEALLQLPPPPPPPPPELESAGGS [r16_191_TrROS_Hall] | 4.25 |
| SAGMTQTLEVSGPSVKVTLTVAPDGSVTITTTDPNGNTTTTSLYVPPGVPVTIPLPFGGTTITATVTPASAG [r5_237_JUSTAS] | 2.11 |
| SAGGSAGGSAGGSFEVVSVDETVTVPPGATVTIVVRDENGKLLTFTFEVRLVPPPPEEESAGGSAGGSAGGS [r10_573_TrROS_Hall] | 1.95 |
| SAGGMSALRIVAENLPEDARVVLPDGRVFPPGVELELPLEADLDVVVALDEDGRVHHVERVPLDRPLLSAGG [r13_441_TrMRF] | -0.501 |
| SALKGLKITEIKEVTNEDGSKSLVVRVDGYLLVFDLDTKKLTLVPLPPVTVTVTVYEKKADPNKPEYKKKSA [r9_1065_TrROS_Hall] | 3.15 |
| SNIKNIKRVEIYYNPENGWMPKIKVEYPGGEREFMFPPDQAEELLNWLQQKGLPMKITDVEYHPMPPDQMSA [r9_607_TrROS] | 1.49 |
| SAGGEIPPNAKIDELEISPGSGYIRIKVEFYDPDGKPIWKMTITIPIKPVPRPSPEDQKEQNKKNKKSAGGS [r16_697_TrROS] | 2.68 |
| SAGGSAGGSMIVVPESVSPEEAEATARQVAQELGISPDTPLEVEIKEVKTGENSVYEIRVTLRSAGGSAGGS [r12_252_JUSTAS] | 0.19 |
| SAGIEIDIEVDPENGFIKITAKIHNPDGNPVYEMEMWIPVDNGRIYRVDIRINPDNGKIELDIEPFPLNSAG [r5_34_TrROS] | 3.88 |
| SAGGSAMKEIEINGYKVRIVKIDEKTGKITIYLYPNASEEMKEKVAELLKELGFEIEVEEVSPEELSAGGSA [r15_570_TrROS_Hall] | 3.53 |
| SAGGGPVTEETYTIKRPDGTELVVTRYYFPGTGETVVRIYPPSTKTPLSTVPLSEASPELLAEIARRSAGGS [r8_32_JUSTAS] | 2.11 |
| SAGGSAGGMKIIKYDKKTKKVLIYYDEETKEWYVRNKNGKIYKFKSVEEALKKLPVKVEIVKVPSAGGSAGG [r6_752_TrROS_Hall] | 1.6 |
| SAGGSATVEVATEPDGTVTVTTLETDPAEPRGTVTTTTVTVTTEPTPEPFLSSSTTTTTTATAPAPSAGGSA [r15_438_JUSTAS] | -0.291 |
| SAGGSAEELLKKLKIVEVKEVDGKLYIEIEVDEPGLTVEEIKEILKELNLDVPIEVKEVVVVEEKESAGGSA [r15_599_TrROS_Hall] | 2.16 |
| SAETVTITLPGATITVEKVDGKWIATVTKVEPGADKVTVEVTLTKVDEDGNTTTVTETVTIDAKTGKVLSAG [r14_724_TrROS_Hall] | 2.92 |
| MRLYLVKVEIRREEVDPETGEVREEKLELTVLVREEDEEALEKAEELARKLAEEEGIKEVKVEVVELPAEES [r1_346_TrROS_Hall] | 2.62 |
| SAGGSAGGSAGMKIEYEHDPNRNWYTVKIDFPNGPPKIPIQVPHDDMPPNDLRDWAKELFSAGGSAGGSAGG [r11_557_TrROS] | 0.58 |
| SAGGSAGGSAGGNGKKEITIFIKVPPGMPPNEIKDELKDLGLTNIEIERHNNWVMITFRSAGGSAGGSAGGS [r10_868_TrROS] | 1.84 |
| SAGGSAGGSAGGSSLASDPTVPPDEPRTVTVLEPEPGGRLRVVTYEETPAGRRPVSALLSAGGSAGGSAGGS [r10_288_JUSTAS] | 1.09 |
| SAGGSAGGSAGMKVEEVPETPVWRFTITRGKKTTIVEVEVPPDEPPDPAEVAAELGYELESAGGSAGGSAGG [r11_1053_JUSTAS] | 1.65 |
| SAGGGSLSDIATVDTSSYTDPNNPASVTVTNVTIPDGSTVTVTYNPTTGTVTVTTATDGTTTTTTIPSSAGG [r13_960_JUSTAS] | 0.917 |
| SPKITIDVETNKNGRGYIRFKFNGREREIRIPSNMTPEGAKEKARDIANTLQKRYQENGRPLKIEEIEIYSA [r9_751_TrROS] | 1.47 |
| SAGGSAGGSSEVIEKLLELNPDVEVVSVTPTPNGVTVTVATKEGGEETVSSAELEKLGVKIRLSAGGSAGGS [r12_3_JUSTAS] | 0.282 |
| SAGGSAGGSMVEYTFTVYDPRTGKETLFTVPSDIPFEEAKEKVEKEIRKGLPPNYTVTFTKPASAGGSAGGS [r20_213_JUSTAS] | 1.45 |
